System: MDA-MB-231 breast cancer cell line
MEASUREMENT PROTOCOL: MTT cytotoxicity assay
Assay type: cell-based, human
CONDITIONS: 48 h treatment
PROPERTY MEASURED: IC50

Study these solved cases before continuing.
{"COMPOUND": "O=C(COc1ccc(F)cc1)NNC(=S)Nc1ccc(Cl)c(Cl)c1 [AB6]", "RESULT": "334 µM"}
{"COMPOUND": "O=C(COc1ccc(F)cc1)NNC(=S)Nc1ccc(Cl)cc1Cl [AB5]", "RESULT": "445 µM"}
{"COMPOUND": "O=C(COc1ccc(F)cc1)NNC(=S)Nc1ccccc1Cl [AB2]", "RESULT": "> 500 µM"}
{"COMPOUND": "O=C(COc1ccc(F)cc1)NNC(=S)Nc1ccccc1 [AB1]", "RESULT": "> 500 µM"}
{"COMPOUND": "O=C(COc1ccc(F)cc1)NNC(=S)Nc1ccc(Cl)cc1 [AB4]", "RESULT": "421 µM"}
{"COMPOUND": "N.N.[Cl][Pt][Cl] [Cisplatin, reference compound]", "RESULT": "38.7 µM"}

Shifting focus to the compound that follows.
Would you kindly share the measured IC50 for O=C(COc1ccc(F)cc1)NNC(=S)Nc1cccc(Cl)c1 [AB3] ?
495 µM

---

Tested on: BJ fibroblasts
MEASUREMENT PROTOCOL: MTT cytotoxicity assay, normal cells
Type: cell-based, human
CONDITIONS: 48 h treatment, read-out: IC50 BJ (fibroblast)
PROPERTY MEASURED: pIC50
Give bare numbers, as −log10 of the molar value.

Study these solved cases before continuing.
{"SMILES DATA": "O=C(COc1ccc(F)cc1)NNC(=S)Nc1ccccc1Cl", "MEASUREMENT TARGET": "BJ fibroblasts", "pIC50": 3.34}
{"SMILES DATA": "O=C(COc1ccc(F)cc1)NNC(=S)Nc1ccccc1", "MEASUREMENT TARGET": "BJ fibroblasts", "pIC50": 3.30}
{"SMILES DATA": "O=C(COc1ccc(F)cc1)NNC(=S)Nc1ccc(Cl)cc1", "MEASUREMENT TARGET": "BJ fibroblasts", "pIC50": 3.51}
{"SMILES DATA": "O=C(COc1ccc(F)cc1)NNC(=S)Nc1cccc(Cl)c1", "MEASUREMENT TARGET": "BJ fibroblasts", "pIC50": 3.38}

Shifting focus to the compound that follows.
Would you kindly share the measured pIC50 for O=C(COc1ccc(F)cc1)NNC(=S)Nc1ccc(Cl)cc1Cl ?
3.52

---

So I've got a bunch of compounds here, and I need their IC50 values.
Test system: A375 melanoma cell line
MEASUREMENT PROTOCOL: MTT cytotoxicity assay
Type: cell-based, human
CONDITIONS: 48 h treatment
Numbers only, in µM.

Study these solved cases before continuing.
{"COMPOUND": "O=C(COc1ccc(F)cc1)NNC(=S)Nc1ccccc1Cl [AB2]", "READING UNIT": "µM", "IC50": 429}
{"COMPOUND": "O=C(COc1ccc(F)cc1)NNC(=S)Nc1ccc(Cl)c(Cl)c1 [AB6]", "READING UNIT": "µM", "IC50": 257}
{"COMPOUND": "O=C(COc1ccc(F)cc1)NNC(=S)Nc1ccc(Cl)cc1Cl [AB5]", "READING UNIT": "µM", "IC50": 384}

Please go through the list and note IC50 for each compound.
1. N.N.[Cl][Pt][Cl] [Cisplatin, reference compound]
2. O=C(COc1ccc(F)cc1)NNC(=S)Nc1cccc(Cl)c1 [AB3]
3. O=C(COc1ccc(F)cc1)NNC(=S)Nc1ccc(Cl)cc1 [AB4]

[18.2, 400, 399]

The reported numbers originate from paper PMC11990103.
